# System: S. aureus Newman
# DETAILS: S. aureus Newman; Mueller-Hinton broth, 16-24 h, 37°C, two-fold dilution series, performed twice
Where no end group is shown, it is not given here.
METRIC NAME: MIC (µg/mL)
Report the figure in µg/mL without appending any unit label.

The cases that follow already have their MIC on record.
{"SUBSTANCE": "Nisin: lantibiotic (ITSISLCTPGCKTGALMGCNMKTATCHCSIHVSK; also: lantibiotic, modified residues and thioether rings not given here; UniProt P13068 24-57, looked up)", "MEASUREMENT TARGET": "S. aureus Newman", "UNITS": "µg/mL", "MIC": 6.25}
{"SUBSTANCE": "KNLRRIIRKIIHIIKKYG-OH [Ovispirin-1]", "MEASUREMENT TARGET": "S. aureus Newman", "UNITS": "µg/mL", "MIC": 20}
{"SUBSTANCE": "FVQWFSKFLGRIL-NH2 [Temporin L-NH2]", "MEASUREMENT TARGET": "S. aureus Newman", "UNITS": "µg/mL", "MIC": 6}

stdin: Returns the measured MIC for the input substance. Input: KNLRRIIRKIIHIIKKYG-NH2 [Ovispirin-1-NH2]
stdout: 20

The origin of these recorded values is paper PMC2748101.
